- Test system: U2OS
- ASSAY METHOD TEXT: drug sensitivity score (DSS) for viability; higher = more toxic; extreme values may be limits of the assay
- EXPERIMENTAL CONDITIONS: 72 h
Hi there, I'd appreciate the recorded drug sensitivity score for every entry that follows.
Write no unit; give the number alone.

Query `CCC(=O)NO` yields drug sensitivity score of 0

Query O=C(NCCCN1CCCCCC1)C(c1ccccc1)C1CCCCC1 (stereo not given) yields drug sensitivity score of 0

Query COc1ccccc1OCCNCC(O)COc1cccc2[nH]c3ccccc3c12 (stereo not given) yields drug sensitivity score of 0

Query `CC(=O)N[C@@H](CC(C)C)C(=O)O` yields drug sensitivity score of 0

Query `O=c1cc[nH]c(=S)[nH]1` yields drug sensitivity score of 0

Query `COC(=O)C1=C(C)NC(C)=C(C(=O)OC(C)C)[C@@H]1c1cccc2nonc12` yields drug sensitivity score of 0

Query C[C@]12N[C@H](Cc3ccccc31)c1ccccc12 [dizocilpine-(-)] yields drug sensitivity score of 0

Query NCc1ccccc1CC(=O)N[C@@H]1C(=O)N2C(C(=O)O)=C(CSc3nnnn3CC(=O)O)CS[C@H]12 [ceforanide] yields drug sensitivity score of 0

Query `C#CCOC(=O)C1=CCCN(C)C1` yields drug sensitivity score of 0

Query `CCCN(CCc1cccs1)[C@H]1CCc2c(O)cccc2C1` yields drug sensitivity score of 0
